compounds and their reported composite z-score
Target: Dickkopf-related protein 1 (Homo sapiens) (UniProt O94907)
Sequence (O94907 whole entry, looked up): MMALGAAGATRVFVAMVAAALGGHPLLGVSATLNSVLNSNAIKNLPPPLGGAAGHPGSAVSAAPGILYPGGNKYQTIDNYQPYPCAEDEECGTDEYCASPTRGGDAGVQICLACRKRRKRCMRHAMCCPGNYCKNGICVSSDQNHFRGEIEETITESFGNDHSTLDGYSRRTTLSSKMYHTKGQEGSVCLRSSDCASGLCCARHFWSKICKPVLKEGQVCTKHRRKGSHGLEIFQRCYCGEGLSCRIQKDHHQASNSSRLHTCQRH
Assay: small molecules binding DKK1 protein – biochemical, small-molecule microarray, 635 nm fluorescence scan, primary screen (AID 1106);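 also: score merges emission near 667 nm with signal to noise over three replicate slides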
Conditions: higher = more signal

{"compound": "CCOC(=O)C1=C[C@@H](C(C)(C)C)N(S(=O)(=O)c2ccc(C)cc2)[C@H]1c1ccc(C#N)cc1", "composite z-score": 0.512}
{"compound": "O=C(NCc1ccccc1)[C@@H]1c2ccccc2C(=O)N(Cc2ccc(OC(F)(F)F)cc2)[C@H]1c1ccc(CO)cc1", "composite z-score": -0.808}
{"compound": "C=C(C)[C@@H]1CC=C(C(O)C2C=CC3C(=O)N(C)C(=O)C3N2Nc2ccc([N+](=O)[O-])cc2[N+](=O)[O-])CC1 (some centres not stated)", "composite z-score": 0.0615}
{"compound": "CC(=O)OCC1C2CC[C@H]3C(OCc4ccc(F)cc4C(F)(F)F)OC[C@]4(C)[C@H]3C2=C(CN4C(=O)OC(C)(C)C)[C@H](C)C1COC(C)=O (some centres not stated)", "composite z-score": -1.31}
{"compound": "CC(C)N1C(=O)c2ccccc2[C@](C)(C(=O)NCC(F)(F)F)[C@@H]1c1ccc(CO)cc1", "composite z-score": -0.693}
{"compound": "O=C1C[C@@](C(=O)NCc2ccccc2)(c2ccc([N+](=O)[O-])cc2)[C@@H](c2ccc(CO)cc2)N1C1CCCCC1", "composite z-score": 0.0339}
{"compound": "CC(C)N1C(=O)c2ccccc2[C@@H](C(=O)NCC(F)(F)F)[C@@H]1c1ccc(CO)cc1", "composite z-score": -0.459}

----------
Assay: resazurin metabolic signal in A549 cells – cell-based, resazurin fluorescence, 24 h, PK04 Diversity Set, profiling panel (AID 1171); also: test concentration not given here
Conditions: A549 viability, higher = more signal, called active from +8 up or from −8 down
compounds and their reported z-score

{"compound": "O=C(O)[C@H](Cc1ccccc1)n1cc(C2(O)CCCCC2)nn1", "z-score": 0.0465}
{"compound": "C=CCN1Cc2ccccc2[C@H]2OC(c3ccc(OCCCO)cc3)=N[C@@]2(CCS(=O)(=O)c2ccccc2)C1=O", "z-score": 0.0687}
{"compound": "CO[C@H]1O[C@H](CO)[C@@H](OC(=O)Nc2ccc3c(c2)OCO3)[C@H](OC(=O)Nc2ccccc2-c2ccccc2)[C@H]1OC(=O)Nc1ccccc1-c1ccccc1", "z-score": -3.84}
{"compound": "CC1CC/C=C\\[C@H]2OC34C=CCN(CCN5CCOCC5)C(=O)[C@H]3N(CCCO)C(=O)[C@@H]4C2C(=O)O1 (some centres undefined)", "z-score": -0.467}

----------
System: Sonic hedgehog protein (Shh)
Assay: Sonic hedgehog microarray binding compounds – biochemical, small-molecule microarray, 635/667 nm fluorescence, primary screen (AID 1151);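 also: Shh protein binding to compounds spotted on small-molecule microarray slides; score combines spot fluorescence intensity with signal-to-noise across triplicate slides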
Settings: 635 nm fluorescence, higher = more signal

{"compound": "NCCCCCCNC(=O)[C@@H]1C[C@@H]2C(=O)N3CCC[C@H]3C(=O)N2[C@@H]1c1cccc(OCCO)c1", "target-of-assay": "Sonic hedgehog protein (Shh)", "composite z-score": 0.513}
{"compound": "O=C(NCC(O)CO)C1N=C(c2ccc(OCCCO)cc2)N(c2ccccc2)O1 (centres undefined)", "target-of-assay": "Sonic hedgehog protein (Shh)", "composite z-score": 1.27}
{"compound": "COCCOC(=O)N1C(=O)[C@@]2(c3ccccc31)[C@H](c1ccc(O)cc1)N1[C@H](c3ccccc3)[C@H](c3ccccc3)OC(=O)[C@H]1[C@@H]2C(=O)N1CCCCCCC1", "target-of-assay": "Sonic hedgehog protein (Shh)", "composite z-score": 1.96}
{"compound": "CCCCCCc1nc(Cc2cc(OC)c(OC)c(OC)c2)cc2c1[Si](C(C)C)(C(C)C)O[C@H]2c1ccccc1", "target-of-assay": "Sonic hedgehog protein (Shh)", "composite z-score": 1.19}
